- Assayed target: PD-L1 protein on the surface of MC38-hPDL1 tumor cells (Homo sapiens)
- Construct: expressed in transfected cells; host or cells: MC38-hPDL1 (mouse colon cancer cells)
- Sequence (Q9NZQ7 19-290): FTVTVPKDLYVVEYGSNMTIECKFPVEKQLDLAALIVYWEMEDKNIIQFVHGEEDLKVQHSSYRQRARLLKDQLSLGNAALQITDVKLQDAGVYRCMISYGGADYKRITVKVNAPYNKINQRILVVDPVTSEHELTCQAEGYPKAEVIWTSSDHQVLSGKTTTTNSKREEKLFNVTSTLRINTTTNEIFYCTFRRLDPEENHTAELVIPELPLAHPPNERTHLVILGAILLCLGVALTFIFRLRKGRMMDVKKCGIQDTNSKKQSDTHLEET
- Test protocol: Induction of endocytosis of PD-L1 on the surface of tumor cells (flow cytometry)
- Type: cell-based
- Assay context: inducing endocytosis of PD-L1, MC38-hPDL1 cells, 16 hours incubation; read-out: MC38 IC50
pIC50: −log10 of the molar value.
Reported property: pIC50

Would you please look over these solved cases?
In [3]: df
Out[3]:
                            compound_string  reported_property  result_value
0  COc1nc(-c2cccc(-c3cccc(NC(=O)c4nc5c(n4C)CCN(C)C5)c3Cl)c2Cl)ccc1CN1CC2(C1)CN(C(=O)C(C)C)C2              pIC50          9.15
1  COc1cc(-c2cccc(-c3cccc(NC(=O)c4nc5c(n4C)CCN(C)C5)c3Cl)c2Cl)ccc1CNC[C@@H](C)O              pIC50          8.77
2  COc1nc(-c2cccc(-c3cccc(NC(=O)c4nc5c(n4C)CCN(C)C5)c3Cl)c2Cl)ccc1CN1CC2(COC2)C1              pIC50          9.40
3  COc1nc(-c2cccc(-c3cccc(NC(=O)c4nc5c(n4C)CCN(C)C5)c3Cl)c2Cl)ccc1CN1CC2(C1)CN(C(C)=O)C2              pIC50          9.40
4  COc1cc(C(=O)Nc2cccc(-c3cccc(NC(=O)c4nc5c(n4C)CCN(C)C5)c3Cl)c2C)ncc1CN[C@@H]1CCOC[C@@H]1F              pIC50          8.43

A. COc1ccnc(NCc2cnc(C(=O)Nc3cccc(-c4cccc(NC(=O)c5nc6c(n5C)CCN(C)C6)c4Cl)c3C)cc2OC)c1
B. COc1nc(-c2cccc(-c3cccc(NC(=O)c4nc5c(n4C)CCN(C)C5)c3Cl)c2Cl)ccc1CNCC1(C#N)CC1
C. COc1nc(-c2cccc(-c3cccc(NC(=O)c4nc5c(n4C)CCN(C)C5)c3Cl)c2Cl)ccc1CN1CCC(C)(C#N)CC1
Order field: pIC50 | Direction: descending (largest first) Return the labels ranked in the requested order, please.
B, A, C

a. COc1cc(-c2cccc(-c3cccc(NC(=O)c4nc5c(n4C)CCN(C)C5)c3Cl)c2C)ncc1CNC1CCOCC1
b. COc1nc(-c2cccc(-c3cccc(NC(=O)c4nc5c(n4C)CCN(C)C5)c3Cl)c2Cl)ccc1CN1CCC(C#N)CC1
Two entries are listed, a and b . Which one carries the higher pIC50? Kindly state the label of the option you pick.
b

---

- Assayed target: human PD-1/PD-L1 binding (Homo sapiens)
- Construct: PD-L1-His protein (19 to 238 amino acids) (Abcam #ab167713); purchased Abcam (PD-L1-His); R&D (PD-1-Fc) ab167713; 1086-PD
- Sequence (Q9NZQ7 19-238): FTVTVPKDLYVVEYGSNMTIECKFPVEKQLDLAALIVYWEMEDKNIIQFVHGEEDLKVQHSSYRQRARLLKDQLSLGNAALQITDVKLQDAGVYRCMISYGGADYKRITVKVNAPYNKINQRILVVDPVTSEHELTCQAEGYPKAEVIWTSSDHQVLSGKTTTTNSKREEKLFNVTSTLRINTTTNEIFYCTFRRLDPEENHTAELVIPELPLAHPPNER
- Test protocol: Inhibition of human PD-1/PD-L1 binding (TR-FRET/HTRF)
- Assay context: TR-FRET, PD-L1-His and PD-1-Fc; read-out: PD-1/PD-L1 binding IC50
Reported property: IC50 (nM)

Would you please look over these solved cases?
>>> df
                                   compound                           assayed_target  result_value
0  COc1nc(-c2cccc(-c3cccc(NC(=O)c4nc5c(n4C)CCN(C)C5)c3Cl)c2Cl)ccc1CN1CCCC[C@H]1C(=O)O  human PD-1/PD-L1 binding (Homo sapiens)           1.8
1  CCn1c(C(=O)Nc2cccc(-c3cccc(-c4ccc(CN[C@H]5CCOC[C@@H]5O)c(OC)n4)c3Cl)c2Cl)nc2c1CCN(C)C2 (relative stereo)  human PD-1/PD-L1 binding (Homo sapiens)           6.4

I. COc1nc(-c2cccc(-c3cccc(NC(=O)c4nc5c(n4C)CCN(C)C5)c3Cl)c2Cl)ccc1CNC1COC1
II. COc1nc(-c2cccc(-c3cccc(NC(=O)c4nc5c(n4C)CCN(C)C5)c3Cl)c2Cl)ccc1CN1CC2(C1)CN(C(=O)C(C)C)C2
Between I and II , which one has the lower reported IC50 value? Kindly state the label of the option you pick.
I
(I: 4.3 nM, II: 8.1 nM)

P. COc1cc(C(=O)Nc2cccc(-c3cccc(NC(=O)c4nc5c(n4C)CCN(C)C5)c3Cl)c2C)ncc1CNc1cc(C)ccn1
Q. COc1nc(-c2cccc(-c3cccc(NC(=O)c4nc5c(n4C)CCN(C)C5)c3Cl)c2Cl)ncc1CNCCO
R. COc1cc(-c2cccc(-c3cccc(NC(=O)c4nc5c(n4C)CCN(C)C5)c3Cl)c2Cl)cnc1CN1CC(F)C1
Rank ascending by IC50. Return the labels ranked in the requested order, please.
Q, P, R

a. COc1cc(C(=O)Nc2cccc(-c3cccc(NC(=O)c4nc5c(n4C)CCN(C)C5)c3Cl)c2C)ncc1CNC1CCOCC1
b. COc1nc(-c2cccc(-c3cccc(NC(=O)c4nc5c(n4C)CCN(C)C5)c3Cl)c2Cl)ccc1CNC1CCOCC1C(=O)O (stereo not shown)
c. COc1cc(C(=O)Nc2cccc(-c3cccc(NC(=O)c4nc5c(n4C)CCN(C)C5)c3Cl)c2C)ncc1CN[C@@H]1CONC1=O
d. COc1nc(-c2cccc(-c3cccc(NC(=O)c4nc5c(n4C4CC4)CCN(C)C5)c3Cl)c2Cl)ccc1CN1CC2(C1)CN(C(C)=O)C2
Rank ascending by IC50. Return the labels ranked in the requested order, please.
c, a, b, d

1. COc1nc(-c2cccc(-c3cccc(NC(=O)c4nc5c(n4C)CCN(C)C5)c3Cl)c2Cl)ccc1CN1CCC2(CC1)CN(C(C)=O)C2
2. COc1cc(-c2cccc(-c3cccc(NC(=O)c4nc5c(n4C)CCN(C)C5)c3Cl)c2Cl)ncc1CNC1CCOCC1
3. COc1cc(C(=O)Nc2cccc(-c3cccc(NC(=O)c4nc5c(n4C)CCN(C)C5)c3Cl)c2C)ncc1CN[C@H]1CCCNC1=O
4. COc1cc(C(=O)Nc2cccc(-c3cccc(NC(=O)c4nc5c(n4C)CCN(C)C5)c3Cl)c2C)ncc1CN1CC2(COC2)CC1=O
Order field: IC50 | Direction: descending (largest first) Return the labels ranked in the requested order, please.
4, 3, 1, 2
(4: 9.1 nM, 3: 6.3 nM, 1: 4.3 nM, 2: 3 nM)

---

- Test protocol: Pharmacokinetics test in Balb/C mice
- Format: in vivo
- Assay context: male, mouse, po, p.o. 5 mg/kg, plasma, read-out: Curve area AUC0−t
Reported property: AUC(0-t) (ng·h/mL)

                            compound_string  result_value
0  COc1nc(-c2cccc(-c3cccc(NC(=O)c4nc5c(n4C)CCN(C)C5)c3Cl)c2Cl)ccc1CN1CC2(C1)CN(C(C)=O)C2           778

P. COc1nc(-c2cccc(-c3cccc(NC(=O)c4nc5c(n4C)CCN(C)C5)c3Cl)c2Cl)ccc1CNC1COC1
Q. COc1nc(-c2cccc(-c3cccc(NC(=O)c4nc5c(n4C)CCN(C)C5)c3Cl)c2Cl)ncc1CN1CC(CNC(C)=O)C1
Two entries are listed, P and Q . Which one carries the higher AUC(0-t)? Kindly state the label of the option you pick.
Q

a. COc1nc(-c2cccc(-c3cccc(NC(=O)c4nc5c(n4C)CCN(C)C5)c3Cl)c2Cl)ccc1CN1CC(NC(C)=O)C1
b. COc1nc(-c2cccc(-c3cccc(NC(=O)c4nc5c(n4C)CCN(C)C5)c3Cl)c2Cl)ncc1CN1CC(CO)C1
Two entries are listed, a and b . Which one carries the higher AUC(0-t)? Kindly state the label of the option you pick.
a

---

- Test protocol: Pharmacokinetics test in Balb/C mice
- Assay type: in vivo
- Assay context: male, mouse, po, p.o. 5 mg/kg, plasma, read-out: Drug concentration in plasma Cmax
Reported property: Cmax (ng/mL)

Would you please look over these solved cases?
                                   compound  result_value
0  COc1nc(-c2cccc(-c3cccc(NC(=O)c4nc5c(n4C)CCN(C)C5)c3Cl)c2Cl)ccc1CN1CC2(C1)CN(C(C)=O)C2 [Embodiment 123]            59
1  COc1nc(-c2cccc(-c3cccc(NC(=O)c4nc5c(n4C)CCN(C)C5)c3Cl)c2Cl)ccc1CN1CC2(COC2)C1 [Embodiment 124]            36
2  COc1nc(-c2cccc(-c3cccc(NC(=O)c4nc5c(n4C)CCN(C)C5)c3Cl)c2Cl)cnc1CN1CC2(C1)CN(C(C)=O)C2 [Embodiment 152]            93
3  COc1nc(-c2cccc(-c3cccc(NC(=O)c4nc5c(n4C)CCN(C)C5)c3Cl)c2Cl)ncc1CN1CC(CO)C1 [Embodiment 223]            24
4  COc1nc(-c2cccc(-c3cccc(NC(=O)c4nc5c(n4C)CCN(C)C5)c3Cl)c2Cl)ccc1CN[C@@H]1CCCC[C@@H]1O [Embodiment 176]            55

1. COc1nc(-c2cccc(-c3cccc(NC(=O)c4nc5c(n4C)CCN(C)C5)c3Cl)c2Cl)ccc1CN1CC(C(=O)N(C)C)C1 [Embodiment 183]
2. COc1nc(-c2cccc(-c3cccc(NC(=O)c4nc5c(n4C)CCN(C)C5)c3Cl)c2Cl)ccc1CN1CC2(C1)CN(C(=O)C(C)C)C2 [Embodiment 186]
3. COc1nc(-c2cccc(-c3cccc(NC(=O)c4nc5c(n4C)CCN(C)C5)c3Cl)c2Cl)ccc1CN[C@H]1CCOC[C@@H]1O (relative stereo) [Embodiment 175]
Order field: Cmax | Direction: descending (largest first) Return the labels ranked in the requested order, please.
3, 1, 2
